quantity measured: melting point

{"columns": ["structure smiles", "experimental result"],
 "data": [
  ["C#Cc1cccc(Nc2ncnc3cc(OCCOC)c(OCCSCC(=O)O)cc23)c1.N", "98 to 113 °C (dec.)"],
  ["C#Cc1cccc(Nc2ncnc3cc(OCCOC)c(OCCCl)cc23)c1.Cl", "215 to 225 °C (dec.)"],
  ["C#Cc1cccc(Nc2ncnc3cc(OCCOC)c(O)cc23)c1.Cl", "135 to 150 °C (dec.)"],
  ["C#Cc1cccc(Nc2ncnc3cc(OCCOC(C)=O)c(OCCOC(C)=O)cc23)c1", "137 to 138 °C"],
  ["C#Cc1cccc(Nc2ncnc3cc(OCCCl)c(OCCCl)cc23)c1.Cl", "230 to 240 °C (dec.)"],
  ["C#Cc1cccc(Nc2ncnc3cc(OCCn4ccc(=O)cc4)c(OCCOC)cc23)c1.Cl", "240 to 248 °C (dec.)"],
  ["C#Cc1cccc(Nc2ncnc3cc(OCCCC)c(OCCCC)cc23)c1.Cl", "247 to 248 °C"],
  ["C#Cc1cccc(Nc2ncnc3cc(OCCOC)c(OCCN4CCOCC4)cc23)c1.Cl.Cl", "115 to 130 °C (dec.)"],
  ["C#Cc1cccc(Nc2ncnc3cc(OCCO)c(OCCO)cc23)c1.Cl", "215 to 218 °C (dec.)"],
  ["C#Cc1cccc(Nc2ncnc3cc(OCCOC)c(OCCOC(C)=O)cc23)c1", "84 to 87 °C"]
]}

###

quantity measured: melting point

{"columns": ["molecule", "experimental result"],
 "data": [
  ["C#Cc1cccc(Nc2ncnc3cc(OCCSC(C)C(=O)O)c(OCCOC)cc23)c1.N (centres unmarked)", "95 to 103 °C (dec.)"],
  ["C#Cc1cc(Nc2ncnc3cc(OCCOC)c(OCCOC)cc23)ccc1F.Cl", "170 to 190 °C (dec.)"],
  ["C#Cc1cccc(Nc2ncnc3ccc(C)cc23)c1.Cl", "256 to 257 °C"],
  ["C#Cc1ccc(C)c(Nc2ncnc3cc(OCCOC)c(OCCOC)cc23)c1.Cl", "170 to 185 °C (dec.)"],
  ["C#Cc1cccc(Nc2ncnc3cc(OCCOC)c(OCCn4ccnc4)cc23)c1.Cl.Cl", "85 to 100 °C (dec.)"]
]}
